System: Fer (mouse);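 further: 11-residue human phosphosite peptides and single-mutation variants displayed on the E. coli surface, counted by deep sequencing, each peptide's frequency after selection divided by its frequency in the unselected input library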;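 further: frequency after pTyr selection over input frequency; kinase dosed for 20-30% of maximal phosphorylation in three min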
ASSAY_COMMENT: phosphorylation enrichment, bacterial display (enrichment ratio); higher = better substrate or ligand; peptides without Tyr show the background
A collection of sequences and their measured phosphorylation enrichment
OUTCOME_MEASURE: phosphorylation enrichment

[[record]]
monomer_sequence = "VGTKRYMAPDV [ACVRL1_Y375_E379D]"
observed_result = 0.35

[[record]]
monomer_sequence = "EQYELYCEMGS [CBL_Y371]"
observed_result = 3.7

[[record]]
monomer_sequence = "EYGRRYGFSRQ [CCDC93_Y209]"
observed_result = 0.309

[[record]]
monomer_sequence = "RHPEVYHHLGI [NVL_Y290_V295I]"
observed_result = 0.641

[[record]]
monomer_sequence = "KLPDAYERLIL [G6PD_Y437]"
observed_result = 0.634

[[record]]
monomer_sequence = "SGAWSYNTSTE [SELE_Y24]"
observed_result = 0.382

[[record]]
monomer_sequence = "NTQRPYFKGGG [TYROBP_Y111_YF]"
observed_result = 0.437

[[record]]
monomer_sequence = "ITNHIYTWVDP [DFNB31_Y234_V229I]"
observed_result = 9.75

[[record]]
monomer_sequence = "ATDLAYFLVRK [ASL_Y375_YF]"
observed_result = 0.509

[[record]]
monomer_sequence = "PMQLPYDSRWE [PDGFRA_Y582]"
observed_result = 0.485

[[record]]
monomer_sequence = "FKTPTYPFLLP [PLD2_Y578_YF]"
observed_result = 0.362

[[record]]
monomer_sequence = "FQVRRYDCDCD [CRYGS_Y21_G18V]"
observed_result = 0.497

[[record]]
monomer_sequence = "MFCASYDTKQE [F10_Y407_G406S]"
observed_result = 0.571

[[record]]
monomer_sequence = "MPIPMYDASQA [CARMIL1_Y637]"
observed_result = 0.565


These measurements were taken from the supplement of paper PMC10065799.
